- Test target: human serum albumin (HSA) (Homo sapiens)
- Construct: purchased Chiralpac
- Sequence (P02768 25-609): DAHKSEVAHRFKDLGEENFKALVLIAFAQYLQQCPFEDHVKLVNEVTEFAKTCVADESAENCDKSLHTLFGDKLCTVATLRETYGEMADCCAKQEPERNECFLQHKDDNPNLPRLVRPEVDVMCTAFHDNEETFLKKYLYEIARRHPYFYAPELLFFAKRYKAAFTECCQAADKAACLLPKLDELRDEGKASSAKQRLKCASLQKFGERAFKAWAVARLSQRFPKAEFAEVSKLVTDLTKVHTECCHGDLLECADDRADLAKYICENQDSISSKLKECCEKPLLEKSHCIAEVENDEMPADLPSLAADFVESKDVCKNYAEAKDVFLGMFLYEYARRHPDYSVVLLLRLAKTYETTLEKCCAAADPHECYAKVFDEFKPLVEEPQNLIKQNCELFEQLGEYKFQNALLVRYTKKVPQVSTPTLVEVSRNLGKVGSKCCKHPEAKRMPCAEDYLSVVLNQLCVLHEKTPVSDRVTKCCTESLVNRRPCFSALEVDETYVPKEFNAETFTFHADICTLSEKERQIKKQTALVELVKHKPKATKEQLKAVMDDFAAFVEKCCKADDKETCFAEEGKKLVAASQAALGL
- Protocol notes: HPLC on immobilized HSA column, affinity and % plasma–protein binding
- Assay type: in vitro ADME
- Condition summary: binding equilibrium constant from calibration curve (Equation 8) of log k HSA
Metric: log K HSA

Q) Bench note: what log K HSA did `O=C(COc1ccccc1)NNC(=S)Nc1ccccc1Cl` show?
A) 1.2059

Q) Subsequent entry: `O=C(COc1ccccc1)NNC(=S)Nc1ccccc1F`
A) 1.2775

Q) Likewise for `O=C(COc1ccccc1)NNC(=S)Nc1cccc(Cl)c1` ?
A) 1.3217

Q) Moving on to the next molecule: `O=C(COc1ccccc1)NNC(=S)Nc1ccccc1`
A) 1.0986

Q) One more molecule: `O=C(COc1ccccc1)NNC(=S)Nc1ccccc1I`
A) 1.5037

Q) // next record `O=C(COc1ccccc1)NNC(=S)Nc1ccc(Cl)c(Cl)c1`
A) 1.8712

Q) Field entry: `O=C(COc1ccccc1)NNC(=S)Nc1ccc(Br)cc1`
A) 2.0248

Q) Continue with `O=C(COc1ccccc1)NNC(=S)Nc1ccc([N+](=O)[O-])cc1`
A) 1.7456

Q) // query: `O=C(COc1ccccc1)NNC(=S)Nc1ccc(Cl)cc1Cl`
A) 1.6879

Q) Check `O=C(COc1ccccc1)NNC(=S)Nc1ccc(I)cc1` too.
A) 2.1778

Q) Please do the same for `O=C(COc1ccccc1)NNC(=S)Nc1cccc(F)c1` as well.
A) 1.1581

Q) Could you do the same for `O=C(COc1ccccc1)NNC(=S)Nc1ccc(Cl)cc1` , please?
A) 1.9333

Q) Could you do the same for `O=C(COc1ccccc1)NNC(=S)Nc1cc(Cl)ccc1Cl` , please?
A) 2.2183

Q) Follow-up item: `CSc1ccc(NC(=S)NNC(=O)COc2ccccc2)cc1`
A) 1.6830

Q) `O=C(COc1ccccc1)NNC(=S)Nc1ccc(F)cc1` , same question.
A) 1.2852

Q) Here is the next molecule: `O=C(COc1ccccc1)NNC(=S)Nc1cccc(Br)c1`
A) 2.2501

Q) Now this one: `O=C(COc1ccccc1)NNC(=S)Nc1cccc(I)c1`
A) 2.1342

Q) Follow-up item: `O=C(COc1ccccc1)NNC(=S)Nc1cccc2ccccc12`
A) 1.5246
